- STUDY_SYSTEM: Dopamine 1
- TEST_METHOD_NOTES: Fluorescent ligand binding, dopamine 1 (direct fluorescence measurement)
- CONDITION_PARAMETERS: Table I; centri., quench; read-out: Fluores. Kd
MEASURE_NAME: Kd (nM)

{"columns": ["MOLECULE", "STUDY_SYSTEM", "MEASURE_NAME", "RESULT_VALUE"],
 "data": [
  ["O=[N+]([O-])c1ccc(NCCN2CCN(CCCN3c4ccccc4Sc4ccc(C(F)(F)F)cc43)CC2)c2nonc12 [PDC 014.043]", "Dopamine 1", "Kd", 190]
]}

###

- STUDY_SYSTEM: Adenosine-A2a
- TEST_METHOD_NOTES: Fluorescent ligand binding, adenosine-A2a receptor
- CONDITION_PARAMETERS: Table I; centrifugation; read-out: Fluores. Kd
pKd: −log10 of the molar value.

{"columns": ["SMI", "STUDY_SYSTEM", "pKd"],
 "data": [
  ["CCNC(=O)[C@H]1O[C@@H](n2cnc3c(N)nc(NCCc4ccc(CCC(=O)NCCNC(=S)Nc5ccc6c(c5)C(=O)OC65c6ccc(O)cc6Oc6cc(O)ccc65)cc4)nc32)[C@H](O)[C@@H]1O", "Adenosine-A2a", 7.24]
]}

###

- STUDY_SYSTEM: kappa1 opioid receptor
- TEST_METHOD_NOTES: Radioligand ([^3 H]U69,593) binding, kappa1 opioid receptor
- CONDITION_PARAMETERS: 1R,2R enantiomer, read-out: IC50 value versus radioligand binding

{"columns": ["SMI", "IC50 (µM)"],
 "data": [
  ["CN(C(=O)Cc1cc(Cl)c(Cl)cc1NC(=O)CCCNC(=O)c1ccc2c(c1)C(=O)OC21c2ccc(O)cc2Oc2cc(O)ccc21)[C@@H]1CCCC[C@H]1N1CCCC1", 3.23]
]}

###

- STUDY_SYSTEM: NMDA
- TEST_METHOD_NOTES: Fluorescent ligand binding, NMDA receptor complex
- CONDITION_PARAMETERS: Table I; centri., spectral shift; read-out: Fluores. Kd
pKd: −log10 of the molar value.
MEASURE_NAME: pKd

{"columns": ["MOLECULE", "MEASURE_NAME", "RESULT_VALUE"],
 "data": [
  ["CN(C)c1cccc2c(S(=O)(=O)NCCCNC(Cc3ccccc3)c3ccccc3)cccc12 (stereo not shown)", "pKd", 6.00]
]}

###

- STUDY_SYSTEM: Peripheral Bzd
- TEST_METHOD_NOTES: Fluorescent ligand binding, peripheral benzodiazepine receptor
- CONDITION_PARAMETERS: Table I; centrifugation; read-out: Fluores. Kd
MEASURE_NAME: Kd (µM)

{"columns": ["COMPOUND", "UNIT_ANNOTATION", "RESULT_VALUE"],
 "data": [
  ["CCC(C)N(C)C(=O)c1cc2ccccc2c(-c2cc(NC(=O)c3ccc4c(c3)C(=O)OC43c4ccc(O)cc4Oc4cc(O)ccc43)ccc2F)n1 (stereo not shown) [PDC 018.091]", "µM", 0.04]
]}

###

- STUDY_SYSTEM: kappa1 opioid receptor
- TEST_METHOD_NOTES: Radioligand ([^3 H]U69,593) binding, kappa1 opioid receptor
- CONDITION_PARAMETERS: bound in parentheses, read-out: IC50 value versus radioligand binding
MEASURE_NAME: IC50

{"columns": ["SMI", "MEASURE_NAME", "RESULT_VALUE"],
 "data": [
  ["CN(C(=O)Cc1cc(Cl)c(Cl)cc1NC(=O)CCCNC(=O)c1ccc2c(c1)C(=O)OC21c2ccc(O)cc2Oc2cc(O)ccc21)[C@@H]1CCCC[C@H]1N1CCCC1", "IC50", "> 1 µM"]
]}

###

- STUDY_SYSTEM: Peripheral Bzd
- TEST_METHOD_NOTES: Radioligand binding, peripheral benzodiazepine receptor
- CONDITION_PARAMETERS: Table I; read-out: Radiolig. Kd:Ki
pKi: −log10 of the molar value.

{"columns": ["COMPOUND", "pKi"],
 "data": [
  ["CCC(C)N(C)C(=O)c1cc2ccccc2c(-c2cc(NC(=O)c3ccc4c(c3)C(=O)OC43c4ccc(O)cc4Oc4cc(O)ccc43)ccc2F)n1 (stereo not shown)", 8.70]
]}
